Reported IC50 values are given for each entry in this list.
- target: beta-catenin (human)
- Sequence (B6V8E6 146-665 limits assumed): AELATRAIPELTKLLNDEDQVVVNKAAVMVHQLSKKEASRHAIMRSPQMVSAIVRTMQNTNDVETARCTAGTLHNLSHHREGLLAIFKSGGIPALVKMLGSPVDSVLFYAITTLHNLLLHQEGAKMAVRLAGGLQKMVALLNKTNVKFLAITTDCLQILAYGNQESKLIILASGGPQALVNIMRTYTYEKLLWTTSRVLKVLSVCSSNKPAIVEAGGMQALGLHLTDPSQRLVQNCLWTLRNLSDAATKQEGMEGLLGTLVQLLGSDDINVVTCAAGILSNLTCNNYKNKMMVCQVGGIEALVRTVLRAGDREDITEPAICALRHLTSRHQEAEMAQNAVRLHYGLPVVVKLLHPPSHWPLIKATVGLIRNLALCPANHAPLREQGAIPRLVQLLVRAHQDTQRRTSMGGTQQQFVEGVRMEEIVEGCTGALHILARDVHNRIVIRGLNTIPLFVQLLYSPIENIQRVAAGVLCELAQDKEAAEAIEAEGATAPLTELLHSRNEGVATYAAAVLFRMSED
- assay_method_text: fluorescence polarization
*1 amine or outer side, *2 acyl side, *3 side chain or, on linkers, in order; H or OH if unused. Bridges are numbered along the chain shown (N, C = ends). Primed or numbered codes have the meaning given here. [ ]: non-standard residue; d: D form. PyrS2″ = (S)-3-amino-1-((pent-4-en-1-yloxy)carbonyl)pyrrolidine-3-carboxylic acid (olefin stapling residue), C=CCCCOC(=O)N1CC[C@@](N[*:1])(C(=O)[*:2])C1; PyrS2(3) = (S)-3-amino-1-((pent-4-en-1-yloxy)carbonyl)pyrrolidine-3-carboxylic acid, olefin residue, C=CCCCOC(=O)N1CC[C@@](N[*:1])(C(=O)[*:2])C1; PyrS2(5) = (S)-3-amino-1-((pent-4-en-1-yloxy)carbonyl)pyrrolidine-3-carboxylic acid, C=CCCCOC(=O)N1CC[C@@](N[*:1])(C(=O)[*:2])C1; B5″ = 2-amino-2-(pent-4-en-1-yl)hept-6-enoic acid (bis-olefin stapling residue), C=CCCCC(CCCC=C)(N[*:1])C(=O)[*:2]; B5(5) = 2-amino-2-(pent-4-en-1-yl)hept-6-enoic acid (two olefin arms), C=CCCCC(CCCC=C)(N[*:1])C(=O)[*:2]; B5(3) = 2-amino-2-(pent-4-en-1-yl)hept-6-enoic acid, two olefin arms, C=CCCCC(CCCC=C)(N[*:1])C(=O)[*:2]; Phe(3-COOH) = N[C@@H](Cc1cccc(C(=O)O)c1)C(=O)O; 2F3MeF = Cc1cccc(C[C@H](N[*:1])C(=O)[*:2])c1F; Bta = N[C@@H](Cc1csc2ccccc12)C(=O)O; αAllylPro = C=CC[C@@]1(C(=O)O)CCCN1; tBuAla = CC(C)(C)C[C@H](N)C(=O)O; 3Thi = N[C@@H](Cc1ccsc1)C(=O)O; PyrS2(4) = not defined here; hSer = N[C@@H](CCO)C(=O)O; Nle = CCCC[C@H](N)C(=O)O; Orn = NCCC[C@H](N)C(=O)O; TfeGA = not defined here; GlnR = not defined here; PL3 = not defined here; B5 = not defined here; Aib = CC(C)(N)C(=O)O

binder	IC50
Ac-[αAllylPro]D[tBuAla][B5(3)]D[Phe(3-COOH)][Nle]AFK[PyrS2(3)][3Thi][Bta][GlnR]A-NH2 (bridge 10-14; not fully specified (bridges); printed as Ac-PL3-Asp-Npg-B5-Asp-3COOHF-nLeu-Ala-Phe-Lys*3-PyrS2-3Thi-BztA-GlnR*3-Ala-NH2; reading uncertain) [I-70]	< 50 nM
Ac-[αAllylPro]D[tBuAla][B5(5)]D[Phe(3-COOH)]AAF[GlnR][PyrS2(5)][3Thi][Bta][Orn]-NH2 (bridge 10-14; not fully specified (bridges); printed as Ac-PL3-Asp-Npg-B5-Asp-3COOHF-Ala-Ala-Phe-GlnR*3-PyrS2-3Thi-BztA-Orn*3-NH2; reading uncertain) [I-38]	< 50 nM
Ac-[αAllylPro]D[tBuAla][B5″]D[TfeGA][Aib]AFK[PyrS2″][2F3MeF][Bta][GlnR]A-NH2 (bridge 10-14; not fully specified (bridges); reading uncertain; also: Lys*3 and GlnR*3 marked *3) [I-120]	< 50 nM
Ac-[αAllylPro]D[tBuAla][B5″][hSer][TfeGA]AAFK[PyrS2″][2F3MeF][Bta][GlnR]A-NH2 (bridge 10-14; not fully specified (bridges); reading uncertain; also: Lys*3 and GlnR*3 marked *3) [I-119]	> 1000 nM
Ac-[PL3]DL[B5]DDAAFK[PyrS2(4)][3Thi][Bta][GlnR]-NH2 (staple 1-4; bridge 10-14; not fully specified (residue 10); printed as Ac-PL3-Asp-Leu-B5-Asp-Asp-Ala-Ala-Phe-dLys*3-PyrS2-3Thi-BztA-GlnR*3-NH2; reading uncertain; also: PyrS2 tied into a staple, partner not placed) [I-1]	< 50 nM
